Recorded immunological response to the antigenic epitope (T cell proliferative response) for the following substances
- Tested on: TPc9.1 T hybridoma with CH27 antigen presenting cells
- Experimental details: T hybridoma response assay (APC + T hybridoma, HT-2 [3H]TdR uptake readout)
- Assay type: cell-based, murine
- Condition info: Conc. 750 nM
- Procedure: Biological Activities of Hybrid Peptides [00103) The biological activities of the series of peptides listed in Table I were determined with the T hybridoma response assay. […] Response was determined by measuring tritiated thymidine uptake by an HT-2 culture to which supernatants of the antigenic stimulation culture (24 hr stimulation period) had been transferred (see, Table 2). […] Antigenic peptide-specific T cell activation was measured by the following procedure. […]
Reported property: immunological response to the antigenic epitope (T cell proliferative response)

> print(dat)
                                  substance                               result
1  IAYLKQATAK [Hybrid 1, Ac-IAYLKQATAK—NH2 (SEQ ID NO: 8), reference compound]  27.8 thousands of counts per minute
2          LRMKLPKSAKPIAYLKQATAK [Hybrid 5]  27.5 thousands of counts per minute
3  Ac-LRMKLPKSAKPVSKIAYLKQATAK-NH2 (SEQ ID NO: 11) [Hybrid 6]  23.4 thousands of counts per minute
4  Ac-LRMKLPKSIAYLKQATAK-NH2 (SEQ ID NO: 9) [Hybrid 4]  23.3 thousands of counts per minute
